B1: H2-Kb / Ed5 (parent complex)
chain 1: GDSVTQTEGPVTVSESESLIINCTYSATSIAYPNLFWYVRYPGEGLQLLLKVITAGQKGSSRGFEATYNKETTSFHLQKASVQESDSAVYYCALGSYNQGKLIFGQGTKLSIKP
chain 2: DTTVKQNPRYKLARVGKPVNLICSQTMNHDTMYWYQKKPNQAPKLLLFYYDKILNREADTFEKFQSSRPNNSFCSLYIGSAGLEYSAMYLCASSRRLGASQNTLYFGAGTRLSVL
chain 3: not shown
chain 4: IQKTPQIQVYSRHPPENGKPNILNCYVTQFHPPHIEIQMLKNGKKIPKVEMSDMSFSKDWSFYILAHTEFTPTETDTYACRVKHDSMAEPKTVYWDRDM
chain 5: SIINFEKL

Variants of: B1
test_method_notes: % of reporter cells activated (NFAT-GFP), raw; note: test concentration or dose not given here
Consider the following variants and their measured ratio to parent readings.
Answer with a number only.

Please review the entries below; each comes with its answer.
variant_descriptor	ratio to parent
chain 5 N4D	0.756
chain 5 F5C	1.04

Value of measured ratio to parent for the entry chain 5 K7P : 0.728
